Measurement target: T1, Purified recombinant human CD26 (rhDipeptidyl peptidase IV), R&D Systems CAT #1180-SE (human, UniProt P27487 29-766)
T1 construct: Bought recombinant protein; also called hu-CD26; soluble human CD26
T1 sequence (P27487 29-766 limits assumed): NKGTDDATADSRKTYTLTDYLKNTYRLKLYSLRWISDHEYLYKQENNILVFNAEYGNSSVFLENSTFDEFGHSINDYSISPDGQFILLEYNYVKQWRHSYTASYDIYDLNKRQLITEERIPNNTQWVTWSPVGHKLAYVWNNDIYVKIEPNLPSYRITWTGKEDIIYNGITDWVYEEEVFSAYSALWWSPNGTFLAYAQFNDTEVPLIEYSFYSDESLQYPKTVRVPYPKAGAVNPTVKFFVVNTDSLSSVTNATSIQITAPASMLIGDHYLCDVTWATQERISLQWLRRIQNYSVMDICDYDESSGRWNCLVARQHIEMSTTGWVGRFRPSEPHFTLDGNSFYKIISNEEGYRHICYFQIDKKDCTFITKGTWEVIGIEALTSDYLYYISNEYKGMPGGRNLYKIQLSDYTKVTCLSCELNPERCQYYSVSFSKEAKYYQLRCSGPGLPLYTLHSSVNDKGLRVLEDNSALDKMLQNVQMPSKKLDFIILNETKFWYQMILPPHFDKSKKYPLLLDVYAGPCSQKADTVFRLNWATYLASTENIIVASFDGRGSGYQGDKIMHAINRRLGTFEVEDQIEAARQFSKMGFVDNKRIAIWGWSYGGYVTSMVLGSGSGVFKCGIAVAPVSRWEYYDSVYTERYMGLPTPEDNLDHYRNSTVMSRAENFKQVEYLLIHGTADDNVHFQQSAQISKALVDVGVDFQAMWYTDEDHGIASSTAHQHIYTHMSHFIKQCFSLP
Method notes: SPR (Biacore), Fab
pKd: −log10 of the molar value.

Binder | pKd
Fab X430 (X399 VH and X394 VL) (Fab, V domains shown, also called Fab X429) VH: EVQLVQSGGGVKQPGETLRLTCTASGFSLSTYGVHWVRQAPGKGLEWVGVIWGDGRTDYDAAFMSRVTISKDTSKSTVYLQMNSLRAEDTAVYYCMRNRHDWFDYWGQGTTVTVSS VL: DILMTQSPSSLSASPGDRVTISCRASQDIRNNLNWYQQKPGQAPRLLIYYSSNLQTGVPARFSGSGSGTDFTLTISRLEPEDFAAYYCQQSIKLPLTFGSGTKVEIK | 8.92
Fab comprising X379 VL and CM03 VH (Fab, V domains shown, Fab made in E. coli) VH: QVKLQESGPGLVQPSQTLSITCTVSGFSLTTYGVHWVRQSPGKGLEWLGVIWGGGRTDYDAAFISRLSISKDNSKSQVFFKMNSLQANDTAIYYCVRNRHDWFDYWGQGTTVTVSS VL: DILLTQSPSSLSATPGERATITCRASQGIRNNLNWYQQKPGQAPRLLIYYSSNLQSGVPSRFSGSGSGTDFTLTISRLQPEDVAAYYCQQSIKLPFTFGSGTKVEIK | 8.92
Fab X431 (X420 VH and X380 VL) (Fab, V domains shown, also called Fab X420) VH: EVQLVESGGGVKQPGETLRLTCTASGFSLSTYGVHWVRQAPGKGLEWVGVIWGDGRTDYDAAFMSRVTISKDTSKSTVYLQMNSLRAEDTAVYYCMRNRHDWFDYWGQGTTVTVSS VL: EIEMTQSPSSLSVSAGERATISCSASQDIRNSLNWYQQKPGQAPRLLIYYSSNLHTGVPARFSGSGSGTDFTLTISRLEPEDVAIYYCQQSNKLPLTFGSGTKVEIK | 9.04
Fab X393 (X385 VH and X379 VL) (Fab, V domains shown, Fab made in E. coli) VH: EVQLVQSGGGVKQPGETLRLTCTASGFSLTTYGVHWVRQAPGKGLEWVGVIWGDGRTDYDAAFMSRVTISKDTSKSTAYLQMNSLRAEDTAVYYCMRNRHDWFDYWGQGTTVTVSS VL: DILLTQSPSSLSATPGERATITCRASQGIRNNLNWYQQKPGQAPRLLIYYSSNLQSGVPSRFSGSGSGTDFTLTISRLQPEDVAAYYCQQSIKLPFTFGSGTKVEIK | 9.48
Fab X396 (X385 VH and X380 VL) (Fab, V domains shown, Fab made in E. coli) VH: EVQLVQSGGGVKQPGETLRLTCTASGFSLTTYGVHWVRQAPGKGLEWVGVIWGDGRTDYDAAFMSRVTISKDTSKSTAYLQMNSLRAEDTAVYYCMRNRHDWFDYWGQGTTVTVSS VL: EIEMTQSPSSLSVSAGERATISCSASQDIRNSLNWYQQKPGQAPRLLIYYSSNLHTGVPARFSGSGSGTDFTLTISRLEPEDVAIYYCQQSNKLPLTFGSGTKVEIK | 8.60
Fab comprising X387 VH and CM03 VL (Fab, V domains shown, Fab made in E. coli) VH: EVQLVESGAELVQPGGSLRLTCKASGFTLNTYGVHWVRQAPGKGLEWMGVIWGGGRTDYDASFMSRVTISKDNSKNTAYLQLNSLRAEDTAVYYCTRSRHDWFDYWGQGTTVTVSS VL: DIQMTQSPSSLSASLGDRVTITCSASQGIRNSLNWYQQKPDGAVKLLIYYSSNLHSGVPSRFSGSGSGTDFSLTISNLEPEDIATYYCQQSIKLPFTFGSGTKLEIK | 7.29
Fab comprising X384 VH and CM03 VL (Fab, V domains shown, Fab made in E. coli) VH: EVQLVESGAGVKQPGGTLRLTCTASGFSLTTYGVHWVRQAPGKGLEWVGVIWGDGRTDYDAAFMSRVTISKDTSKSTVYLQMNSLRAEDTAVYYCMRNRHDWFDYWGQGTTVTVSS VL: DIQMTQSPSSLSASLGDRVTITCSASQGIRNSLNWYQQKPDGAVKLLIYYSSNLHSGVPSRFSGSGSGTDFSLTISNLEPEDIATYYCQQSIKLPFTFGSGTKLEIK | 8.92
Fab X394 (X384 VH and X394 VL) (Fab, V domains shown, Fab made in E. coli) VH: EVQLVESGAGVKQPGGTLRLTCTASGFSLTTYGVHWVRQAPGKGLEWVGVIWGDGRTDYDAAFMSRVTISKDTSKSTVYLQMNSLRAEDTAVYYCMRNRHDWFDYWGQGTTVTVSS VL: DILMTQSPSSLSASPGDRVTISCRASQDIRNNLNWYQQKPGQAPRLLIYYSSNLQTGVPARFSGSGSGTDFTLTISRLEPEDFAAYYCQQSIKLPLTFGSGTKVEIK | 9.24
Fab X390 (X385 VH and X376 VL) (Fab, V domains shown, Fab made in E. coli) VH: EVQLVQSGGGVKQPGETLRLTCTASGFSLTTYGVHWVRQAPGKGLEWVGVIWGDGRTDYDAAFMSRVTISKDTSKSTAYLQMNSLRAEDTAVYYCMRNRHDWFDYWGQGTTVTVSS VL: DILMTQSPSSLSASPGDRVTISCRASQDIRNNLNWYQQKPGQAPRLLIYYSSNLHSGVPDRFSGSGSGTDFTLTISRLEPEDFAAYYCQQSIKLPLTFGSGTKVEIK | 9.02
Fab comprising X385 VH and CM03 VL (Fab, V domains shown, Fab made in E. coli) VH: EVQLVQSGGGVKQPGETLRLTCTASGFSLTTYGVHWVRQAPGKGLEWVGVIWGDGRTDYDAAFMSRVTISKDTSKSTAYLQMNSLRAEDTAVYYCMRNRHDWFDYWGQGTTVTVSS VL: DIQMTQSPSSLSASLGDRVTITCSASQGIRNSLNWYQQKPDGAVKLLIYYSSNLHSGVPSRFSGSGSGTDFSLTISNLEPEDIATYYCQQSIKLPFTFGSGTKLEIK | 8.82

This collection of values is drawn from patent US20070105771A1.
